Recorded pKi, one value per entry.
- TARGET_UNDER_TEST: ALK L1196M/G1202R kinase domain (Homo sapiens, UniProt Q9UM73, G1202R/L1196M)
- Construct: TRKA-wt (1 nM, BPS Bio, 40280) kinase domains in buffer
- ASSAY_DETAILS: Biochemical kinase assay, ALK L1196M/G1202R
- STUDY_CONDITIONS: 2 mM ATP substrate solution, read-out: Ki^app ALK-L1196M-G1202R
pKi: −log10 of the molar value.

Illustrative cases are given below, each with its answer.
COMPOUND	REPORTED_MEASUREMENT
CCc1nn(C)c2c1-c1cnc(N)c(c1)OCc1cc(F)ccc1-c1nc(C)sc1C2	> 7.30
CC1Oc2cc(cnc2N)-c2c(cnn2CC(F)F)Cn2ccnc2-c2ccc(F)cc21 (stereo not shown)	6.30 to 7.30
C[C@H]1Oc2cc(cnc2N)-c2c(nnn2CC2CC2)Cc2cc(F)cnc2-c2ccc(F)cc21	> 7.30
Cc1cc2n(n1)-c1ccc(F)cc1COc1cc(cnc1N)-c1c(cnn1CC1CC1)C2	> 7.30
C[C@H]1Oc2cc(cnc2N)-c2c(C(F)F)cnn2Cc2cc(F)cnc2-c2ccc(F)cc21	6.30 to 7.30

In: For the compound shown here, CCn1nc(Cl)c2c1-c1cnc(N)c(c1)O[C@H](C)c1cc(F)ccc1-n1nc(C)cc1C2 , give the reported pKi.
Out: > 7.30

In: Item under review: C[C@H]1Oc2cc(cnc2N)-c2c(nn(C)c2CC2CC2)Cc2ccnn2-c2ccc(F)cc21 . Reported pKi?
Out: > 7.30

In: Give the measured pKi of CCn1ncc2c1-c1cnc(N)c(c1)O[C@H](C)c1cc(F)ccc1-n1nc(OC)cc1C2 .
Out: > 7.30

* * *

- TARGET_UNDER_TEST: ALK L1196M/G1202R kinase domain (Homo sapiens, UniProt Q9UM73, G1202R/L1196M)
- Construct: TRKA-wt (1 nM, BPS Bio, 40280) kinase domains in buffer
- ASSAY_DETAILS: Biochemical kinase assay, ALK L1196M/G1202R
- STUDY_CONDITIONS: 2 mM ATP substrate solution, read-out: Ki^app ALK-L1196M-G1202R
pKi: −log10 of the molar value.
pKi listing for selected compounds.

Reference set, count: 5
STRUCTURE_AS_SMILES	pKi
C[C@H]1Oc2cc(cnc2N)-c2c(nnn2CC2CC2)Cc2cc(Cl)nn2-c2ccc(F)cc21	> 7.30
CCc1nsc2c1-c1cnc(N)c(c1)O[C@H](C)c1cc(F)ccc1-c1nn(C)cc1C2	> 7.30
C[C@H]1Oc2cc(cnc2N)-c2c(cnn2CC2(C)CC2)Cc2cn(C)nc2-c2ccc(F)cc21	> 7.30
CCn1ncc2c1-c1ccc(F)cc1[C@@H](C)Oc1cc(cnc1N)-c1c(cnn1C)C2	> 7.30
CCn1ncc2c1-c1cnc(N)c(c1)O[C@H](C)c1cc(F)ccc1-n1ncc(C#N)c1C2	6.30 to 7.30

In: Reported pKi for C[C@H]1Oc2cc(cnc2N)-c2c(cnn2C2CCC2)Cc2cnn(C)c2-c2ccc(F)cc21 : what is it?
Out: > 7.30

In: # input compound: C[C@H]1Oc2cc(cnc2N)-c2c(C#N)noc2Cc2cn(C)nc2-c2ccc(F)cc21 ; wanted: its pKi
Out: > 7.30

In: Field request: pKi | item: C[C@H]1Oc2cc(cnc2N)-c2c(C#N)ncn2Cc2ccnn2-c2ccc(F)cc21
Out: > 7.30

In: What pKi value was documented for this compound, CCc1onc2c1-c1cnc(N)c(c1)O[C@H](C)c1cc(F)ccc1-c1nn(C)cc1C2 ?
Out: > 7.30

* * *

- TARGET_UNDER_TEST: TRKA-wt kinase domain (Homo sapiens, UniProt P04629)
- Construct: TRKA-wt (1 nM, BPS Bio, 40280) kinase domains in buffer; purchased BPS Bio 40280
- ASSAY_DETAILS: Biochemical kinase assay, TRKA-wt
- STUDY_CONDITIONS: 2 mM ATP substrate solution, read-out: Ki^app TRKA-wt
// reported Ki for each item listed

Below, each entry is followed by its recorded Ki result.
MOLECULE	OBSERVATION_TYPE	REPORTED_MEASUREMENT
C[C@H]1Oc2cc(cnc2N)-c2c(nn(C)c2CC2CC2)Cc2cn(C)nc2-c2ccc(F)cc21 [Compound 179]	Ki	50 to 500 nM
C[C@H]1Oc2cc(cnc2N)-c2c(cnn2CC(F)F)Cc2cc(C(F)(F)F)nn2-c2ccc(F)cc21 [Compound 84]	Ki	> 500 nM
Cc1nc2c(s1)Cc1cnn(C(F)F)c1-c1cnc(N)c(c1)O[C@H](C)c1cc(F)ccc1-2 [Compound 72]	Ki	50 to 500 nM
CCn1ncc2c1-c1cnc(N)c(c1)O[C@H](C)c1cc(F)ccc1-c1ncccc1C2 [Compound 3]	Ki	< 50 nM
Cc1nc2c(s1)Cc1c(c(C#N)nn1C)-c1cnc(N)c(c1)O[C@H](C)c1cc(F)ccc1-2 [Compound 82]	Ki	50 to 500 nM

In: # query: Ki of entry CCn1ncc2c1-c1cnc(N)c(c1)OCc1cc(F)ccc1-n1nccc1C2 [Compound 41]
Out: > 500 nM

In: Please report the recorded Ki for Cc1nn(CC2CC2)c2c1Cc1c(nn(C)c1Cl)-c1ccc(F)cc1[C@@H](C)Oc1cc-2cnc1N [Compound 54] .
Out: > 500 nM

In: What Ki value was documented for this molecule, C[C@H]1Oc2cc(cnc2N)-c2c(C#N)nn(C)c2Cc2ccccc2-c2ccc(F)cc21 [Compound 117] ?
Out: > 500 nM

In: Name the reported Ki value associated with the molecule CC1Oc2cc(cnc2N)-c2c(C#N)cnn2Cc2cnn(C)c2-c2ccc(F)cc21 (stereo not shown) [Compound 60]
Out: > 500 nM

In: What value of Ki has been reported for the following molecule? CCn1ncc2c1-c1cnc(N)c(n1)OC(C)c1cc(F)ccc1-c1c(cnn1C)C2 (stereo not shown) [Compound 164]
Out: > 500 nM

* * *

- TARGET_UNDER_TEST: ALK L1196M/G1202R kinase domain (Homo sapiens, UniProt Q9UM73, G1202R/L1196M)
- Construct: TRKA-wt (1 nM, BPS Bio, 40280) kinase domains in buffer
- ASSAY_DETAILS: Biochemical kinase assay, ALK L1196M/G1202R
- STUDY_CONDITIONS: 2 mM ATP substrate solution, read-out: Ki^app ALK-L1196M-G1202R
OBSERVATION_TYPE: Ki

Examples with answers:
COMPOUND	REPORTED_MEASUREMENT
CCn1ncc2c1-c1cnc(N)c(c1)OCc1cc(F)ccc1-c1nc(C)sc1C2	< 50 nM
C[C@H]1Oc2cc(cnc2N)-c2c(C#N)nn(C)c2Cc2csnc2-c2ccc(F)cc21	< 50 nM
CCc1nn(CC)c2c1Cc1cn(C)nc1-c1ccc(F)cc1[C@@H](C)Oc1cc-2cnc1N	< 50 nM
CCn1ncc2c1-c1cnc(N)c(c1)OC(CO)c1cc(F)ccc1-c1nccn1C2 (centres unmarked)	50 to 500 nM

Next, consider the following compound.
In: May I ask what Ki has been recorded for CCn1ncc2c1-c1cnc(N)c(c1)OC(C)c1cc(F)ccc1-c1ncncc1C2 (centres unmarked) ?
Out: < 50 nM

* * *

- TARGET_UNDER_TEST: ROS1-G2032R kinase domain (Homo sapiens, UniProt P08922, G2032R)
- Construct: TRKA-wt (1 nM, BPS Bio, 40280) kinase domains in buffer
- ASSAY_DETAILS: Biochemical kinase assay, ROS1-G2032R
- STUDY_CONDITIONS: 2 mM ATP substrate solution, read-out: Ki^app ROS1-G2032R
pKi: −log10 of the molar value.
# Lookup of reported pKi keyed by entry

Before answering, review these 3 worked examples.
COMPOUND	REPORTED_MEASUREMENT
CCn1ncc2c1-c1cnc(N)c(c1)OCc1cc(F)ccc1-c1nn(C)cc1C2 [Compound 49]	6.30 to 7.30
C[C@H]1Oc2cc(cnc2N)-c2c(cnn2CC2CC2)Cc2cccnc2-c2ccc(F)cc21 [Compound 137]	> 7.30
C[C@H]1Oc2cc(cnc2N)-c2c(CC(F)F)nn(C)c2Cc2cc(C(F)F)nn2-c2ccc(F)cc21 [Compound 180]	> 7.30

In: // pKi lookup, key: CCn1ncc2c1-c1cnc(N)c(c1)O[C@H](C)c1cc(F)ccc1-c1nn(C)cc1C2 [Compound 1]
Out: > 7.30

In: Any idea what its pKi is? The compound is CCn1ncc2c1-c1cnc(N)c(c1)O[C@H](C)c1cc(F)ccc1-c1nocc1C2 [Compound 99]
Out: > 7.30

In: # pKi lookup, item C[C@H]1Oc2cc(cnc2N)-c2c(cnn2CC(F)F)Cc2cc(C(F)(F)F)nn2-c2ccc(F)cc21 [Compound 84]
Out: > 7.30
